These data points were gathered from PubChem BioAssay.

Listing: composite z-score of selected compounds
target: Neurogenic locus notch homolog protein 2 (Homo sapiens); experiment: Notch2 binders on small-molecule microarrays, primary screen, biochemical, small-molecule microarray, 635 nm fluorescence, stem cell growth factors (AID 1073); details: Notch2 binding, higher = more signal
Lab note: jot down the number only; don't add units.

COCCOC(=O)N1C(=O)[C@@]2(c3cc(C#Cc4ccc(OC)cc4)ccc31)[C@H](C(=O)Nc1nc3ccccc3s1)[C@H]1C(=O)O[C@H](c3ccccc3)[C@H](c3ccccc3)N1[C@@H]2c1ccc(O)cc1	1.06
O=C1NC(=O)C2C1C=CC(C(O)c1c(F)cccc1Cl)N2Nc1ccc(Cl)cc1Cl (stereo unspecified)	1.29
C=CCOC(=O)[C@H]1[C@@H]2C(=O)O[C@@H](c3ccccc3)[C@@H](c3ccccc3)N2[C@@H](c2ccc(OCCOC(=O)[C@@H]3C[C@@H]4C(=O)N5CCC[C@H]5C(=O)N4[C@@H]3c3ccc(O)cc3)cc2)[C@]12C(=O)Nc1ccc(I)cc12	0.344

Record CCCNC(=O)[C@@]1(c2ccc([N+](=O)[O-])cc2)CC(=O)N(C2CCCCC2)[C@@H]1c1ccc(CO)cc1 , field composite z-score: 1.03

composite z-score measured on C=C(/C(=C/C[C@H](OC(=O)c1ccncc1)c1ccc(CO)o1)c1cc(C(=O)OC)ccc1OC)C(C)C = 0.238

Data point: COC(=O)c1nc2oc1CC[C@@H](CO)NC(=O)N(C)Cc1cnnn1C[C@H](Cc1ccccc1)NC2=O ; composite z-score = -0.444

---

assay: binders from COS7 lysate, DM2A8 probe, primary screen, torsin A project, cell lysate, small-molecule microarray, fluorescence 635/667 (AID 1065); conditions: higher = more signal, COS7 lysate expressing mutant human TOR1A
Range-based classes on measured composite z-score: low range = under 0.08, mid range = from 0.08 up to 0.6, high range = 0.6 and over

O=C1OCC=C[C@H]2OC34C=CCN(c5ccc(Cl)cc5)C(=O)[C@H]3N(CCO)C(=O)[C@@H]4[C@@H]12 (stereo partly drawn)	low range
COC(=O)Cn1c(C(=O)N(C)C)cc2c1C[C@H]1CN(C(=O)c3ccccc3)[C@@](Cc3ccc(F)cc3)(C(=O)OC)[C@@H]21	low range
Cc1ccc(S[C@]2(C(=O)O)CC(=O)N(C3Cc4ccccc4C3)[C@@H]2c2ccc(CO)cc2)cc1	mid range
COc1ccc(NC(=O)O[C@H]2[C@H](OC(=O)Nc3ccccc3)[C@H](OC(=O)Nc3ccccc3)[C@@H](OC)O[C@@H]2CO)cc1	high range
C=C(/C(=C/C[C@H](OC(=O)c1ccncc1)c1ccc(CO)o1)c1cc(C(=O)OC)ccc1OC)C(C)C	high range
CN(C)CCCNC(=O)[C@@]1(c2ccc([N+](=O)[O-])cc2)CC(=O)N(CC23CC4CC(CC(C4)C2)C3)[C@@H]1c1ccc(CO)cc1I	high range
COCCOC(=O)N1C(=O)[C@@]2(c3cc(C#CCC(C(=O)OC)C(=O)OC)ccc31)[C@H](C(=O)N1CCc3cc(OC)c(OC)cc3C1)[C@H]1C(=O)O[C@H](c3ccccc3)[C@H](c3ccccc3)N1[C@@H]2c1ccc(OCCO)cc1	mid range
COc1ccc([Si](C)(C)[C@@H]2[C@@H](CC(=O)N(CCO)Cc3ccccc3)O[C@]3(C(=O)N(c4ccccc4)c4ccccc43)[C@H]2C)cc1	mid range
COCCOC(=O)N1C(=O)[C@@]2(c3cc(C#CC4=CCCCC4)ccc31)[C@H](c1ccccc1OCCO)N1[C@H](c3ccccc3)[C@H](c3ccccc3)OC(=O)[C@H]1[C@@H]2C(=O)Nc1nc2ccccc2s1	low range
CCOC(=O)c1ccc(NC(=O)O[C@H]2[C@H](OC(=O)Nc3ccc4c(c3)OCO4)[C@@H](OC(=O)Nc3ccc4c(c3)OCO4)[C@@H](OC)O[C@@H]2CO)cc1	high range

Data request: # classify by composite z-score band: O=C1O[C@@H](c2ccccc2)[C@@H](c2ccccc2)N2[C@@H](c3ccc(O)cc3)[C@]3(C(=O)Nc4ccc(C#CC5(O)CCCCCC5)cc43)[C@@H](C(=O)NC[C@H](O)c3ccccc3)[C@H]12
Data returned: low range

Data request: Which composite z-score band matches NCCCCCCNC(=O)[C@@H]1C[C@@H]2C(=O)N[C@@H](CCCCN)C(=O)N2[C@@H]1c1cccc(OCCO)c1 ?
Data returned: high range

---

test: HepG2 liver cancer cell viability effects, profiling panel, resazurin fluorescence, 24 h, PK04 Diversity Set (AID 1172); conditions: higher = more signal; also: test concentration not given here
In this section we review reported z-score values for a set of compounds.
Enter the number alone.

O=C1O[C@H](c2ccccc2)[C@H](c2ccccc2)N2[C@H]1[C@@H](C(=O)Nc1nc3ccccc3s1)[C@]1(C(=O)Nc3ccc(C#CCCO)cc31)[C@H]2c1ccc(O)cc1	0.506
COc1ccc(C(O)C2C=CC3C(=O)N(c4ccccc4)C(=O)C3N2Nc2ccc([N+](=O)[O-])cc2)cc1 (centres undefined)	-0.724
CCOC(=O)C1=CC[C@@H](c2ccc(OCc3ccccc3)c(OC)c2)N(S(=O)(=O)c2ccc(C)cc2)[C@H]1c1ccc(SC)cc1	0.579

Recorded z-score (compound C=CCC(OC(C)=O)[C@@H]1[C@@H](N(Cc2cc3ccccc3o2)C(=O)c2ccc(C)cc2)c2cc(OCCCO)ccc2N1C(=O)Cc1ccc(OC)cc1 (some centres undefined) ): 0.564

---

Let's look at some compounds and their measured composite z-score.
test: small-molecule binders of probe aLefty1, primary screen, biochemical, small-molecule microarray, 635/667 nm fluorescence (AID 1153); conditions: higher = more signal;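 also: score merges spot fluorescence with signal-to-noise ratio from the scanned slide images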
Would you mind answering with just the numeric figure?

Examples with answers:
C[C@H]1NC(=O)[C@@]23C(=O)N[C@@H](Cc4ccccc4)C2[C@H](C)[C@@]2(C)O[C@H]2C3/C=C/C/C=C\CNC(=O)[C@H](Cc2ccccc2)NC1=O (stereo partly drawn)	-0.0378
COc1ccccc1CN1C(=O)c2ccccc2[C@](Cc2ccccc2I)(C(=O)NCC(F)(F)F)[C@@H]1c1ccc(CO)cc1	0.126

Shifting focus to the compound that follows.
Briefly, composite z-score measured for C[C@@H]1NC(=O)[C@@]23C(=O)N[C@@H](Cc4ccccc4)C2[C@H](C)[C@@]2(C)O[C@H]2C3/C=C/C/C=C\CNC(=O)[C@@H]2CCCN2C1=O (stereo partly drawn) : -0.147

---

tested on: glycogen synthase kinase-3 (GSK3A per assay name; protocol says GSK3B); assay: GSK3 binders on small-molecule microarrays, primary screen, biochemical, small-molecule microarray, 635 nm fluorescence, GSK3A (AID 1103); conditions: small-molecule microarray binding, fluorescence 635 nm; higher = more signal; also: the record names both GSK3A and GSK3B
Short version: composite z-score at least 0.7 is class 1, less is class 0.

See these solved cases before continuing.
COCCCNC(=O)[C@@]1(Sc2ccc(C)cc2)CC(=O)N(C2CCCCC2)[C@@H]1c1ccc(CO)cc1	class 0
C=C(/C(=C/C[C@H](OC(C)=O)c1ccccc1OCCO)c1cc(C(=O)OC)ccc1OC)C(C)C	class 0
COCCOC(=O)N1C(=O)[C@@]2(c3cc(C#CCC(C(=O)OC)C(=O)OC)ccc31)[C@H](C(=O)N1CCc3cc(OC)c(OC)cc3C1)[C@H]1C(=O)O[C@H](c3ccccc3)[C@H](c3ccccc3)N1[C@@H]2c1ccc(OCCO)cc1	class 1
NC(N)=NCCCn1cc(CNC(=O)[C@@H](N)Cc2ccccc2)nn1	class 0
C=CCN1Cc2ccccc2[C@H]2OC(c3ccc(OCCCO)cc3)=N[C@@]2(CC=C)C1=O	class 1

Data request: // inclusive: composite z-score at least 0.7? input: Cc1ccc(S[C@]2(C(=O)O)CC(=O)N(Cc3cc(C(F)(F)F)cc(C(F)(F)F)c3)[C@@H]2c2ccc(CO)cc2)cc1
Data returned: class 0

Data request: API: above_or_equal(metric=composite z-score, cutoff=0.7) for item O=C1O[C@@H](c2ccccc2)[C@@H](c2ccccc2)N2[C@@H](c3ccc(O)cc3)[C@]3(C(=O)Nc4ccc(C#CC5=CCCCC5)cc43)[C@@H](C(=O)NC[C@H](O)c3ccccc3)[C@H]12
Data returned: class 1

Data request: Could you please find out whether CO[C@H]1O[C@H](CO)[C@@H](OC(=O)Nc2ccccc2-c2ccccc2)[C@H](OC(=O)Nc2ccc3c(c2)OCO3)[C@H]1OC(=O)Nc1ccc2c(c1)OCO2 has composite z-score that meets 0.7 or exceeds it?
Data returned: class 1

Data request: Reported composite z-score at or above 0.7? COCCOC(=O)N1C(=O)[C@@]2(c3cc(C#CCCO)ccc31)[C@H](C(=O)Nc1nc3ccccc3s1)[C@H]1C(=O)O[C@H](c3ccccc3)[C@H](c3ccccc3)N1[C@@H]2c1ccccc1OCCO
Data returned: class 1

Data request: Is it the case that CN(C)C(=O)[C@@]1(CCS(=O)(=O)c2ccccc2)N=C(c2ccc(OCCCO)cc2)O[C@H]1c1ccccc1 has composite z-score reaching or exceeding 0.7?
Data returned: class 1

Data request: Determine whether measured composite z-score meets or exceeds 0.7 for O=C1O[C@H](c2ccccc2)[C@H](c2ccccc2)N2[C@H]1[C@@H](C(=O)Nc1nc3ccccc3s1)[C@]1(C(=O)Nc3ccc(C#CCCO)cc31)[C@H]2c1ccc(O)cc1
Data returned: class 1
